- Test system: B/Lee/40 (Lee)
- experimental-details: microbe, parasite or virus in culture
- Format: cell-based, influenza B virus
- settings: unidentified influenza virus, MDCK, read-out: EC50 against Influenza Virus Lee
reported-property: pEC50
Numbers only, as −log10 of the molar value.

These solved cases illustrate the format of a correct answer.
[[record]]
molecule = "COc1ccc2cc(-c3cc4c(cc3CCO)OCO4)n(C)c(=O)c2c1OC"
subject_of_test = "B/Lee/40 (Lee)"
reported_property = "pEC50"
recorded_result = 4.65

[[record]]
molecule = "COc1cc2cc(-c3ccccc3)[nH]c(=O)c2cc1OC"
subject_of_test = "B/Lee/40 (Lee)"
reported_property = "pEC50"
recorded_result = 5.00


# pEC50 lookup, item NC(=O)c1ncn([C@@H]2O[C@H](CO)[C@@H](O)[C@H]2O)n1 [RBV, ribavirin, reference compound] 4.32

====

- Test system: B/Lee/40 (Lee)
- experimental-details: microbe, parasite or virus in culture
- Assay type: cell-based, influenza B virus
- settings: unidentified influenza virus, MDCK, read-out: EC50 against Influenza Virus Lee
Kindly supply the reported EC50 values for the records listed here.
Give bare numbers, in µM.

These solved cases illustrate the format of a correct answer.
[[record]]
compound = "COc1ccccc1-c1cc2ccccc2c(=O)[nH]1"
recorded_result = 1.4

[[record]]
compound = "O=c1[nH]c(-c2ccccc2CO)cc2ccccc12"
recorded_result = 17.2

[[record]]
compound = "Cc1cccc(-c2cc3c(N(C)C)cccc3c(=O)[nH]2)c1"
recorded_result = 58.7


Switching to the query record.
# EC50 lookup, item CCC(CC)O[C@@H]1C=C(C(=O)O)C[C@H](N)[C@H]1NC(C)=O [OSV-C, oseltamivir carboxylate, reference compound] 0.37

====

Kindly supply the reported EC50 values for the records listed here.
- Test system: influenza A and B viruses (PR8, HK, Lee)
- experimental-details: Cytopathic effect assay, values given across the viral strains tested
- Assay type: cell-based
- settings: Influenza A virus; PR8, HK and Lee strains, MDCK cells; read-out: EC50 values, range across influenza A and B viruses

These solved cases illustrate the format of a correct answer.
[[record]]
entry_smiles = "COc1cc2cc(-c3ccccc3)[nH]c(=O)c2cc1OC"
recorded_result = "9.9 to 18.5 µM"

[[record]]
entry_smiles = "CCc1cc2c(cc1-c1cc3ccc(OC)c(OC)c3c(=O)n1C)OCO2"
recorded_result = "0.2 to 0.6 µM"


# EC50 lookup, item "COc1ccc2cc(-c3cc4c(cc3CCO)OCO4)n(C)c(=O)c2c1OC" 22.2 to 59.9 µM

====

Kindly supply the reported pEC50 values for the records listed here.
- System: B/Lee/40 (Lee)
- experimental-details: microbe, parasite or virus in culture
- Type: cell-based, influenza B virus
- settings: unidentified influenza virus, MDCK, read-out: EC50 against Influenza Virus Lee
Give bare numbers, as −log10 of the molar value.

Fill in pEC50 for each of the 2 compounds listed.
1. O=c1[nH]c(-c2ccccc2)cc2ccccc12
2. CCc1cc2c(cc1-c1cc3ccc(OC)c(OC)c3c(=O)n1C)OCO2

4.06
6.22

Fill in pEC50 for each of the 2 compounds listed.
1. COc1ccc2cc(-c3cc4c(cc3CCO)OCO4)[nH]c(=O)c2c1OC
2. COc1ccc(-c2cc3cc(C)ccc3c(=O)[nH]2)cc1OC

1: 4.81; 2: 4.13
